# targetOrTestSystem: CIB1 and αIIb interaction (CIB1-GST : F-αIIb peptide) (Homo sapiens, UniProt Q99828)
# Construct: made in house; host or cells: BL-21 plus RIL cells (E. coli)
# Sequence (Q99828 whole entry): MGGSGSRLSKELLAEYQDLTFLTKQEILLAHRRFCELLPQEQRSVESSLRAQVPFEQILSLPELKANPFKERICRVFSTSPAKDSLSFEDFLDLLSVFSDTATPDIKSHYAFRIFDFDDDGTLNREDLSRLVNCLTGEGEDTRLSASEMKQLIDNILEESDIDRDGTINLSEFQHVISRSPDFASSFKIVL
# methodDescription: FP assay, 1536-well qHTS format (primary and confirmatory screen)
# Type: binding
# measurementConditions: qHTS primary screen hits, Table S2; negative = inhibition
Label TRUE when Efficacy (%) is at or above -40%; anything below gets FALSE.

Could you tell me if the measured Efficacy (%) of NC(=O)C1CCN(c2nc(-c3ccccc3N)cs2)CC1.O=C(O)C(F)(F)F reaches -40% or more?
FALSE

Could you tell me if the measured Efficacy (%) of Cc1cc(SCc2sc(-c3ccc(Cl)c(Cl)c3)nc2C)ccc1OCc1nnn[nH]1.O=C(O)C(F)(F)F reaches -40% or more?
TRUE

Could you tell me if the measured Efficacy (%) of O=C(O)C(F)(F)F.O=C(O)c1ccc(-c2ccc3ncnc(NCc4cccs4)c3c2)o1 reaches -40% or more?
TRUE

Could you tell me if the measured Efficacy (%) of Cc1ccc2nc3sc(C(=O)NCc4ccco4)cc3cc2c1.O=C(O)C(F)(F)F reaches -40% or more?
TRUE

Could you tell me if the measured Efficacy (%) of Cc1ccc(S(=O)(=O)Nc2cnccc2C(=O)Nc2nc3ccccc3s2)cc1.O=C(O)C(F)(F)F reaches -40% or more?
FALSE

----------
# targetOrTestSystem: CIB1 and αIIb interaction (CIB1-GST : F-αIIb peptide) (Homo sapiens)
# Construct: made in house; host or cells: BL-21 plus RIL cells (E. coli)
# methodDescription: FP assay, 1536-well qHTS format (primary and confirmatory screen)
# Type: binding
# measurementConditions: confirmatory screen
Labelling field: enter satisfied if recorded Efficacy (%) (confirmatory screen) is less than -50%. Enter not satisfied if it equals or exceeds that cut-off.

Is the reported Efficacy (%) (confirmatory screen) for CCCCC(CC)CNC(=N)NC(=N)NCCCCCCNC(=N)NC(=N)NCC(CC)CCCC.Cl.Cl.Cl (stereo not drawn) strictly below -50%?
satisfied

Is the reported Efficacy (%) (confirmatory screen) for Cl.O=C1c2c(O)ccc(O)c2C(=O)c2c(NCCNCCO)ccc(NCCNCCO)c21 strictly below -50%?
satisfied

Is the reported Efficacy (%) (confirmatory screen) for CC(=O)NC(Cc1c[nH]c2ccccc(=O)c12)C(=O)O (stereo not drawn) strictly below -50%?
satisfied

Is the reported Efficacy (%) (confirmatory screen) for CCOC(=O)c1c(-c2ccc(C)o2)csc1NC(=O)CSc1nnnn1-c1ccccc1.O=C(O)C(F)(F)F strictly below -50%?
not satisfied

Is the reported Efficacy (%) (confirmatory screen) for CCOC(=O)c1cc(-c2ccco2)nc2c1c(C)nn2CCC#N.O=C(O)C(F)(F)F strictly below -50%?
satisfied

Is the reported Efficacy (%) (confirmatory screen) for CC(C)C(=O)OCc1ccc(-c2nn(Cc3ccccc3)c3ccccc23)o1 strictly below -50%?
not satisfied

Is the reported Efficacy (%) (confirmatory screen) for O=C(O)C(F)(F)F.O=C(O)c1ccc(O)c2ncc(-c3n[nH]nc3-c3ccccc3)cc12 strictly below -50%?
not satisfied

Is the reported Efficacy (%) (confirmatory screen) for CCOC(=O)c1nn(-c2ccc(OC)cc2)c(=O)c2c(N)scc12 strictly below -50%?
satisfied

Is the reported Efficacy (%) (confirmatory screen) for COc1cccc2nc(-c3cccs3)nc(NN3C(=O)C=C(C)C3=O)c12 strictly below -50%?
satisfied

Is the reported Efficacy (%) (confirmatory screen) for CC(C)c1ccccc1Cc1cc(C(=O)Nc2ccc(S(=O)(=O)c3ccccc3C(C)(C)C)cc2)c(O)c(O)c1O strictly below -50%?
satisfied

Is the reported Efficacy (%) (confirmatory screen) for CC1=C(C(=O)Nc2cccc(C(=O)O)c2)C(c2ccccc2Cl)N=C(Nc2nc3ccccc3o2)N1.O=C(O)C(F)(F)F (stereo not drawn) strictly below -50%?
not satisfied

Is the reported Efficacy (%) (confirmatory screen) for COc1ccc(C(=O)c2no[n+]([O-])c2C(=O)c2ccc(OC)cc2)cc1.O=C(O)C(F)(F)F strictly below -50%?
not satisfied

Is the reported Efficacy (%) (confirmatory screen) for O=C(O)C(F)(F)F.O=S(=O)(Nc1nccs1)c1ccc(NCc2cc(F)cc(Cl)c2O)cc1 strictly below -50%?
not satisfied

Is the reported Efficacy (%) (confirmatory screen) for CC1(C)C=CN2C(=O)C3=CCCN3C(=O)[C@@H]2C[C@@]12Nc1ccccc1C2=O strictly below -50%?
satisfied

Values compiled from paper PMC11249646.
